System: galium
Assay: Test A postemergence herbicide test
Assay type: in vivo, Galium aparine
Conditions: 500 g ai/ha, 0 to 100 scale (0 no effect, 100 complete control)
Text: At the same time, plants selected from these crop and weed species and also blackgrass (Alopecurus myosuroides), and galium (catchweed bedstraw, Galium aparine) were planted in pots containing the same blend of loam soil and sand and treated with postemergence applications of test chemicals formulated in the same manner. Plants ranged in height from 2 to 10 cm and were in the one- to two-leaf stage for the postemergence treatment. […]
Here, each record is paired with measured Plant response rating, Galium data.
Please respond with just the number, no unit label.

[[record]]
compound = "O=C1NCC(c2cccc(OC(F)F)c2)C1C(=O)Nc1ccccc1F (centres unmarked)"
measured_on = "galium"
test_value = 60


Give recorded Plant response rating, Galium with galium for the following compound: O=C1NCC(c2cccc(-n3ccc(C(F)(F)F)n3)c2)C1C(=O)Nc1cccc(F)c1F (centres unmarked) 0

Checklist item: Plant response rating, Galium tested on galium, entry O=C1NCC(c2cccc(Br)c2)C1C(=O)Nc1ccccc1Cl (centres unmarked) , value? 0

Please provide the recorded Plant response rating, Galium for CN1CC(c2cccc(C(F)(F)F)c2)C(C(=O)Nc2cccc(F)c2F)C1=O (centres unmarked) , tested on galium. 70

# get_value(readout= Plant response rating, Galium, system= galium) for CC(C)N1CC(c2ccc(F)cc2)C(C(=O)Nc2cccc(F)c2F)C1=O (centres unmarked) 0

Find the measured Plant response rating, Galium: item CSc1cccc(C2CNC(=O)C2C(=O)Nc2ccccc2Cl)c1 (centres unmarked) , target or system galium. 0

For galium, provide Plant response rating, Galium of O=C1NCC(c2cccc(Br)c2)C1C(=O)Nc1ccc(F)c(F)c1F (centres unmarked) please. 20

Record CC(C)c1cccc(C2CNC(=O)C2C(=O)Nc2ccccc2C(F)(F)F)c1 (centres unmarked) : what is its Plant response rating, Galium with galium? 0

###

Test system: barnyardgrass
Assay: Test A pre-/postemergence herbicide test
Type: in vivo, Echinochloa crus-galli
Conditions: preemergence; 500 g ai/ha; 0 to 100 scale, 0 is no effect and 100 is complete control
Source text: […]
assay readout: Plant response rating, Barnyardgrass
Give your answer as a number; write no unit.

[[record]]
molecule = "O=C1NCC(c2ccc(OC(F)(F)F)cc2)C1C(=O)Nc1ccccc1C(F)(F)F (racemic)"
test_value = 90


Sample O=C1NCC(c2ccc(Cl)c(Cl)c2)C1C(=O)Nc1ccc(F)cc1F (racemic) — what was its Plant response rating, Barnyardgrass? 90

Param item = COc1cc(C2CNC(=O)C2C(=O)Nc2ccccc2F)ccc1F (racemic) ; retrieve measured Plant response rating, Barnyardgrass. 80

Look up Plant response rating, Barnyardgrass for this molecule: O=C1NCC(c2ccc(F)c(F)c2)C1C(=O)Nc1cccc(C(F)(F)F)n1 (racemic) 20

Suppose we examine the molecule O=C1NCC(c2ccc(Cl)o2)C1C(=O)Nc1cccc(F)c1F (stereo not drawn) ; what Plant response rating, Barnyardgrass value has been reported? 0

What measured Plant response rating, Barnyardgrass goes with CSc1cccc(C2CNC(=O)C2C(=O)Nc2ccccc2F)c1 (stereo not drawn) ? 80

What value of Plant response rating, Barnyardgrass has been recorded for this entry: O=C1NCC(c2ccc(C(F)(F)F)cc2)C1C(=O)Nc1cccc(F)c1F (racemic) 90

Please look up its Plant response rating, Barnyardgrass: O=C1NCC(c2cccc(OC(F)F)c2)C1C(=O)Nc1ccccc1Br (stereo not drawn) 80

Requested field: Plant response rating, Barnyardgrass. Item: O=C1NCC(c2cccc(C(F)F)c2)C1C(=O)Nc1ccccc1F (racemic) 90

What value of measured Plant response rating, Barnyardgrass is listed for CN1CC(c2ccc(F)cc2)C(C(=O)Nc2ccccc2F)C1=O (stereo not drawn) ? 90

Look up Plant response rating, Barnyardgrass: CSc1cccc(C2CNC(=O)C2C(=O)Nc2cccc(F)c2F)c1 (stereo not drawn) 80

Which Plant response rating, Barnyardgrass value is on record for O=C1NCC(c2ccc(C(F)(F)F)cc2)C1C(=O)Nc1ccccc1F (stereo not drawn) ? 90

Which Plant response rating, Barnyardgrass is reported for this molecule? O=C1NCC(c2cnn(CC(F)(F)F)c2)C1C(=O)Nc1ccccc1F (stereo not drawn) 0

What does the record list as Plant response rating, Barnyardgrass for CSc1cccc(C2CNC(=O)C2C(=O)Nc2ccc(F)c(F)c2F)c1 (stereo not drawn) ? 80

What does the record list as Plant response rating, Barnyardgrass for O=C1NCC(c2ccc(C(F)(F)F)cc2F)C1C(=O)Nc1cccc(F)c1F (racemic) ? 80
